Experiment: qHTS of pediatric cancer cell lines to identify multiple opportunities for drug repurposing: Primary screen for DAOY cells (AID 1347090); further: nearly all actives have a fitted effect of over 55% in size
Settings: DAOY medulloblastoma viability, CellTiter-Glo luminescence, 48 h; series mostly up to 46 µM
Results filed as inconclusive are left out. Activity calls are given as the source filed them. The call rests on the fitted dose curve; in most records, active means well fitted cell-killing curve with a large enough effect; inconclusive means small, poorly fitted or top-dose-only effect; inactive means flat fitted curve, though single readings scatter. Numbered stars: 1 amine (or outer) side, 2 acyl side, 3 side chain; on linkers, the order of the positions; unused ones are H or OH. Bridge positions count the residues as written; N and C are the ends. Square brackets hold non-standard residues; d marks the D form. Peptide text beside a SMILES is read from it. I, II: the chains in the order shown. Actinocin(9to1) = Cc1c2oc3c(C)ccc(C(=O)[*:1])c3nc-2c(C(=O)[*:2])c(N)c1=O; NMeV = CN[C@H](C(=O)O)C(C)C; Sar = CNCC(=O)O
# valid calls are active, inactive; nothing else

Record lookup: outcome of this test for `CCCCCCCCCCCCCCCCOP(=O)([O-])OCC[N+](C)(C)C` ?
inactive

And the next one, Cc1c2oc3c(C)ccc(C(=O)N[C@@H]4C(=O)N[C@H](C(C)C)C(=O)N5CCC[C@H]5C(=O)N(C)CC(=O)N(C)[C@@H](C(C)C)C(=O)O[C@@H]4C)c3nc-2c(C(=O)N[C@@H]2C(=O)N[C@H](C(C)C)C(=O)N3CCC[C@H]3C(=O)N(C)CC(=O)N(C)[C@@H](C(C)C)C(=O)O[C@@H]2C)c(N)c1=O (I: T[dV]P[Sar][NMeV] / II: T[dV]P[Sar][NMeV]; ester I:1-I:C, II:1-II:C; linker I:N-II:N via Actinocin(9to1)) ?
active

Next up: CCCCC(CC)CN=C(N)NC(N)=NCCCCCCN=C(N)NC(N)=NCC(CC)CCCC (configuration not stated)
active

Moving on to the next compound: `CCCCOc1cc(C(=O)NCCN(CC)CC)c2ccccc2n1`
inactive

Could you do the same for `O=C1OC(c2ccc(O)cc2)(c2ccc(O)cc2)c2ccccc21` , please?
inactive

Do the same for `c1ccc(CNCCNCc2ccccc2)cc1` please
inactive

Could you do the same for `CCCCCCc1ccc(O)cc1O` , please?
inactive

Record: COc1cc(N)c(Cl)cc1C(=O)NC1CCN(CCCOc2ccc(F)cc2)CC1OC (configuration not stated)
inactive

`CC[C@@H](CO)NCCN[C@@H](CC)CO` , same question.
inactive

Moving on to the next compound: `Oc1ccc(Cl)cc1Sc1cc(Cl)ccc1O`
active

// next record `CCCCS(=O)(=O)N[C@@H](Cc1ccc(OCCCCC2CCNCC2)cc1)C(=O)O`
inactive

Can you check `COc1cccc2c1C(=O)c1c(O)c3c(c(O)c1C2=O)C[C@@](O)(C(C)=O)C[C@@H]3O[C@H]1C[C@H](N)[C@H](O)[C@H](C)O1` next?
active
